// values below are reported Results in a α7+/− β-galactosidase assay, Myotubes, 1 uM
Tested on: α7 integrin promoter
Experiment: muscle cell-based assay: α7βgal+/− myoblasts/myotubes, LacZ reporter, β-galactosidase cleavage of FDG
Set-up: species or system mouse
Conditions: Myotubes; compound at 1 uM
Please reply with the number alone, leaving off any unit.

CC1(C)Cc2c(cnn2-c2cccc(F)c2)C(NC(=O)CCc2cnccn2)C1 (stereo not drawn) [drawing 326] :: 0.1834
O=C(NCc1ccccc1)c1csc(-c2cccnc2)n1 [drawing 452] :: −0.1614
CCCS(=O)(=O)c1nc(S(=O)(=O)c2ccc(C)cc2)c(N2CCCC2)s1 [drawing 364] :: 0.05992

Item: CCOc1ccc(Br)cc1S(=O)(=O)Nc1ccc(C(=O)Nc2ccccc2OC)cc1 [drawing 451] | System: α7 integrin promoter | Results in a α7+/− β-galactosidase assay, Myotubes, 1 uM: 0.02499

Form field Results in a α7+/− β-galactosidase assay, Myotubes, 1 uM for item O=C(Nc1cc(-c2nc3ccccc3s2)ccc1Cl)c1ccc2c(c1)OCO2 [drawing 418] on α7 integrin promoter: −0.09877

Known value: α7 integrin promoter Results in a α7+/− β-galactosidase assay, Myotubes, 1 uM of the compound Cc1cccc(NC(=O)CN(C)C(=O)c2ccc(-c3ccc(Cl)cc3)o2)c1 [drawing 435] equals −0.0743
